Tested on: maximal electroshock seizures
Assay: Maximal electroshock seizure (MES) test, anticonvulsant quantification in mice, i.p.
Settings: mice, i.p.
We begin with a simple list: items and their reported P.I. MES (TD50/ED50).
Could you keep your reply to the number by itself?

CC(Nc1ccccc1)c1ccncc1 (stereo not drawn) : 1.97

input: Can you look up the measured P.I. MES (TD50/ED50) of CC(Nc1ccc(F)cc1)c1ccncc1 (stereo not drawn) for me?
output: 2.46

input: Can you look up the measured P.I. MES (TD50/ED50) of CC(Nc1ccc(Cl)cc1)c1ccncc1 (stereo not drawn) for me?
output: 2.98

---

Assay: Rotorod ataxia test (neurotoxicity), mice, i.p.
Settings: mouse, in vivo, ip
Method: Neurotoxicity is evaluated in mice by the rotorod ataxia test. The animal is placed on a wooden rod of 11/8" diameter rotating at 6 rpm. Normal mice can remain on a rod rotating at this speed indefinitely.
READOUT TYPE: TD50 (mg/kg)
Hi! Could you send only the number? It should be in mg/kg, unit omitted.

# count of solved cases: 2
CC(Nc1ccc(F)cc1)c1ccncc1 (centres unmarked) : 141
CC(Nc1ccccc1)c1ccncc1 (centres unmarked) : 161

Next compound, TD50 to be filled in.
input: Can you look up the measured TD50 of CC(Nc1ccc(Cl)cc1)c1ccncc1 (centres unmarked) for me?
output: 160

---

Molecular target: NMDA
Assay: Radioligand binding, NMDA, [3H]CGS19755
Details: reference compound, [3H]CGS19755
READOUT TYPE: Ki (µM)
Hi! Could you send only the number? It should be in µM, unit omitted.

input: Quick check: Ki on NMDA, item O=C(O)C1CN(CCCP(=O)(O)O)CCN1 (stereo not shown) [CPP, reference compound] ?
output: 0.359

---

We begin with a simple list: items and their reported TD50.
Experiment: in vivo
Design: species or system rat (Sprague-Dawley)
Settings: rat, po

# count of solved cases: 3
Clc1ccc(NCc2ccncc2)cc1 [Compound 11, 1-(4-Chloroanilino)-1-(4-pyridyl)-methan] : > 500 mg/kg
CC(Nc1ccc(Cl)cc1)c1ccncc1 (centres unmarked) [Compound 2, 1-(4-Chloroanilino)-1-(4-pyridyl)-ethan] : > 470 mg/kg
CC(Nc1ccccc1)c1ccncc1 (centres unmarked) [Compound 8, 1-(Anilino)-1-(4-pyridyl)-ethan] : > 500 mg/kg

input: Can you look up the measured TD50 of CC(Nc1ccc(Br)cc1)c1ccncc1 (centres unmarked) [Compound 4, 1-(4-Bromoanilino)-1-(4-pyridyl)-ethan] for me?
output: > 500 mg/kg

input: Can you look up the measured TD50 of CC(Nc1ccc(F)cc1)c1ccncc1 (centres unmarked) [Compound 5, 1-(4-Fluoroanilino)-1-(4-pyridyl)-ethan] for me?
output: > 500 mg/kg

---

Biological target: Glycine (Homo sapiens, UniProt P23415)
Sequence (P23415 29-457): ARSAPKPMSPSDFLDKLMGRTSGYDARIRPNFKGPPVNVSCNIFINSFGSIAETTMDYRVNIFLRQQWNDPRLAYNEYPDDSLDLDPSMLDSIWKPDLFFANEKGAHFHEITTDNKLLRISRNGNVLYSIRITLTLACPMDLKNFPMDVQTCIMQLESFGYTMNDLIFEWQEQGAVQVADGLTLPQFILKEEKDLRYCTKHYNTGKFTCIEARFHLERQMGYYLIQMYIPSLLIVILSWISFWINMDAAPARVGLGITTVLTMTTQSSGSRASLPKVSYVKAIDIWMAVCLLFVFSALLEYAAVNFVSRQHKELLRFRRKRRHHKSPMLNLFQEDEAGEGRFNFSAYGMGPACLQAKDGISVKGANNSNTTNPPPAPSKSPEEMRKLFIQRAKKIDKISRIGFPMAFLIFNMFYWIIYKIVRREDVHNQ
Sequence (P48167 23-497 partner): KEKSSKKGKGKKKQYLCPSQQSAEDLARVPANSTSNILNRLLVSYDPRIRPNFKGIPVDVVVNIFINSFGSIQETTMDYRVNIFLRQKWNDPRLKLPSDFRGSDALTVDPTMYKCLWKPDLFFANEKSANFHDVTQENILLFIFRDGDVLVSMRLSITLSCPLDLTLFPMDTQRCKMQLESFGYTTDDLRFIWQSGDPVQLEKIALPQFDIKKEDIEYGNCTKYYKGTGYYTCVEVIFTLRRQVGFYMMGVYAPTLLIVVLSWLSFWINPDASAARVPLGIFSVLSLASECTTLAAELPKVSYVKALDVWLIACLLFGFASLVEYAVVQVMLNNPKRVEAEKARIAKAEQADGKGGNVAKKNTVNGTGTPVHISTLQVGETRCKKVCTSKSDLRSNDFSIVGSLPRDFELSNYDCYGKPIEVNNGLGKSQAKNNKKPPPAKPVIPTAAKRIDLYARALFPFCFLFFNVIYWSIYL
READOUT TYPE: pKi
# reply with the number alone; pKi is -log10 of concentration in mol/L

input: Quick check: pKi on Glycine (Homo sapiens, UniProt P23415), item O=C1C[C@@H]2OCC=C3CN4CC[C@]56c7ccccc7N1[C@H]5[C@H]2[C@H]3C[C@H]46 [Strychnine Nitrate, reference compound] ?
output: 7.47

---

Test system: maximal electroshock seizures
Test: Maximal electroshock seizure (MES) test in the rat, p.o.
Conditions: Rattus norvegicus, po, read-out: ED50 MES
Lab note: compare ED50 with 50 mg/kg, writing Satisfied if less and Not satisfied if equal or more.

Look over these answered cases.
CC(Nc1ccccc1)c1ccncc1 (centres unmarked) [Compound 8, 1-(Anilino)-1-(4-pyridyl)-ethan] : Satisfied
CC(Nc1ccc(Br)cc1)c1ccncc1 (centres unmarked) [Compound 4, 1-(4-Bromoanilino)-1-(4-pyridyl)-ethan] : Satisfied
CC(Nc1ccc(Cl)cc1)c1ccncc1 (centres unmarked) [Compound 2, 1-(4-Chloroanilino)-1-(4-pyridyl)-ethan] : Satisfied
CC(Nc1ccc(F)cc1)c1ccncc1 (centres unmarked) [Compound 5, 1-(4-Fluoroanilino)-1-(4-pyridyl)-ethan] : Not satisfied

Now look at this one.
input: Please let me know if Clc1ccc(NCc2ccncc2)cc1 [Compound 11, 1-(4-Chloroanilino)-1-(4-pyridyl)-methan] shows ED50 below 50 mg/kg.
output: Satisfied
